testedTarget: BRN2 (Homo sapiens)
assayText: cell-based
condition: read-out: % BRN2 Inhibition (10 μM), 10 μM compound, 24 hours, 42D^ENZR cells stably expressing BRN2-luciferase reporter; negative = activation
inhibition at 10 µM vs 40%: at or above is 1 (yes), below is 0 (no).

Identify whether the reported inhibition at 10 µM of the following compound is 40% or greater: Cn1c(-c2ccc(-c3ccc(Br)cc3Cl)o2)nc2ccccc21 [VPC-18-60]
0 (no)

Then O=C(NC1(c2ccco2)CC1)c1cc2ccc(C(F)(F)F)cc2o1 [VPC-18-119] ?
1 (yes)

Please give the result for FC(F)(F)c1ccc2cc(-c3csc(-c4ccoc4)n3)oc2c1 [VPC-18-104] too.
1 (yes)

Same question for Clc1ccc2nc(-c3csc(-c4ccco4)n3)oc2c1 [VPC-18-107] please.
0 (no)

Please give the result for Clc1ccc2cc(-c3csc(-c4ccoc4)n3)oc2c1 [VPC-18-105] too.
1 (yes)

# iterate: c1ccc2c(-c3cnc(-c4ccoc4)s3)coc2c1 [VPC-18-112]
1 (yes)

----------
Readings of half-life at 1 µM for the listed compounds
assayText: Liver microsome metabolic stability, MLM
Format: in vitro ADME
condition: mouse, liver microsomes, pH 7.4; MLM (single value or second of two), 1 μM compound, 0.25 mg/mL protein; read-out: T1/2 in (mins HLM/MLM)
Provide the reading as a plain figure in min.

Name the recorded half-life at 1 µM for "Oc1ccc2cc(-c3csc(-c4ccco4)n3)oc2c1" .
12

# repeat for "Cc1ccc2cc(-c3csc(-c4ccco4)n3)oc2c1"
10

How about this compound: "c1ccc2c(-c3cnc(-c4ccoc4)s3)coc2c1"
9

----------
Recorded inhibition at 10 µM values for a group of molecules are listed next.
testedTarget: BRN2 (Homo sapiens, UniProt P20265)
Sequence (P20265 whole entry): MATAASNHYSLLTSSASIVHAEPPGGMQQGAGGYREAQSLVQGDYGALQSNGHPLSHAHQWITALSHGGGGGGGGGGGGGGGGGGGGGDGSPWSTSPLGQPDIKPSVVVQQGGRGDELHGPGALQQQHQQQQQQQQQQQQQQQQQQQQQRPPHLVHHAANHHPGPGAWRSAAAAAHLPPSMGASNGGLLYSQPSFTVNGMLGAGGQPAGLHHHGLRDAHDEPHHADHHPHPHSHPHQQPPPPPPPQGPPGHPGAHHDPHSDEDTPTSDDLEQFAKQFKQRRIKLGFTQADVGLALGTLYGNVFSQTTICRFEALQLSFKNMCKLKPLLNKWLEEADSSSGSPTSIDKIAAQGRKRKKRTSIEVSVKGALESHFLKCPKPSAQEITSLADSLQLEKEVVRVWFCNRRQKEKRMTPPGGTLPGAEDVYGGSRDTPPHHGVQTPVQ
assayText: cell-based
condition: read-out: % BRN2 Inhibition (10 μM), 10 μM compound, 24 hours, 42D^ENZR cells stably expressing BRN2-luciferase reporter; negative = activation
Just the number please, in %, no unit attached.

Look over these answered cases.
molecule	testedTarget	metric	experimentalResult
FC(F)(F)c1ccc2cc(-c3csc(NC4CC4)n3)oc2c1	BRN2 (Homo sapiens, UniProt P20265)	inhibition at 10 µM	78.8
Oc1ccc2cc(-c3csc(-c4ccco4)n3)oc2c1	BRN2 (Homo sapiens, UniProt P20265)	inhibition at 10 µM	94
Clc1ccc2cc(-c3csc(-c4cc[nH]c4)n3)oc2c1	BRN2 (Homo sapiens, UniProt P20265)	inhibition at 10 µM	98
Cn1c(-c2ccc(-c3ccccc3F)o2)nc2ccc(C(F)(F)F)cc21	BRN2 (Homo sapiens, UniProt P20265)	inhibition at 10 µM	-52
COc1ccccc1-c1ccc(-c2nc3ccccc3n2C)o1	BRN2 (Homo sapiens, UniProt P20265)	inhibition at 10 µM	51.6
Cn1c(-c2ccc(-c3ccccc3)o2)nc2ccc(C(F)(F)F)cc21	BRN2 (Homo sapiens, UniProt P20265)	inhibition at 10 µM	-97
c1coc(-c2nc(-c3cc4ccccc4o3)cs2)c1	BRN2 (Homo sapiens, UniProt P20265)	inhibition at 10 µM	95.9
Cn1c(-c2ccc(-c3cccnc3)o2)nc2ccc(C(F)(F)F)cc21	BRN2 (Homo sapiens, UniProt P20265)	inhibition at 10 µM	-30

Now let's try a different one.
BRN2 (Homo sapiens, UniProt P20265) / inhibition at 10 µM / "Cc1c(-c2csc(-c3ccco3)n2)oc2ccccc12" : value?
78.1
